# system-tested: SARS-CoV-2 Spike A475V on pseudotyped virus (SARS-CoV-2, UniProt P0DTC2 14-1273)
# measurement-protocol: cell-based or functional assay
measurement-type: Potency change vs WT PsV (fold)
Entry rule: numbers only, all in fold.

mAb 46 (antibody, V domains shown) VH: EVQLLESGGGLVQPGRSLRLSCAASGFTFSSYAMSWVRQAPGKGLEWVSTIYSGGSTYYADSVKGRFTISRDNSKNTLYLQMNSLRAEDTAVYYCARGDSRDAFDIWGQGTMVTVSS VL: DIQMTQSPSSLSASVGDRVTITCRASQSISSWLAWYQQKPGKAPKLLIYDASNLETGVPSRFSGSGSGTDFTLTISSLQPEDFATYYCQQSYSTPFTFGPGTKVDIKR
1.9
mAb 324 (antibody, V domains shown) VH: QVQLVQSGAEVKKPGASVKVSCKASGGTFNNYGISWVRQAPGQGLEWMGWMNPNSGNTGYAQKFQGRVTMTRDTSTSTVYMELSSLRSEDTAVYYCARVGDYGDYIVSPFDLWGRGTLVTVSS VL: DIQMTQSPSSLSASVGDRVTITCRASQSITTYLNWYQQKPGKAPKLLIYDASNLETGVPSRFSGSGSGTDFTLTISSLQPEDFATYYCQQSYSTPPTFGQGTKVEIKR
-0.6

Now for another entry.
Lookup result for mAb 52 (antibody, V domains shown) VH: QVQLVQSGAEVKKPGSSVKVSCKASGYTFTSYGISWVRQAPGQGLEWMGGIIPMFGTTNYAQKFQGRVTITADKSTSTAYMELSSLRSEDTAVYYCARDRGDTIDYWGQGTLVTVSS VL: DIQMTQSPSSLSASVGDRVTITCRASQGISNNLNWYQQKPGKAPKLLIYAASSLESGVPSRFSGSGSGTDFTLTISSLQPEDFATYYCQQGNGFPLTFGPGTKVDIKR ; measured Potency change vs WT PsV: 1.1
